organism: Rattus norvegicus; assay: Hypolipidemic activity was expressed as percent decrease in triglycerides; type: functional; set-up: concentration or dose not given beside the values
Threshold-based label: Reduction under 30% gives TRUE, Reduction not under 30% gives FALSE.

CCCCCCCc1nc(CC(=O)O)c(-c2ccsc2)o1	TRUE

Query: Lab note: confirm whether the reported Reduction for this molecule is below 30%, equality not counting. molecule: CCCCCCCOC(=O)Cc1nc(-c2ccc(Cl)cc2)oc1-c1ccco1
Result: FALSE

Query: Lab note: confirm whether the reported Reduction for this molecule is below 30%, equality not counting. molecule: CCOC(=O)Cc1nc(-c2ccc(Cl)cc2)oc1-c1ccc(C=O)o1
Result: TRUE

Query: Lab note: confirm whether the reported Reduction for this molecule is below 30%, equality not counting. molecule: O=C(O)Cc1nc(-c2ccc(F)cc2)oc1-c1ccco1
Result: TRUE

====

species on record: Rattus norvegicus; test: Hypolipidemic activity was expressed as percent decrease in serum cholesterol; assay type: functional; set-up: concentration or dose not given beside the values
For each entry below, report its Reduction value.
Answers are plain numbers, in %.

Worked set:
CCOC(=O)Cc1nc(-c2ccc(Cl)cc2)oc1-c1ccc(C=O)o1	9
CCCCCCCc1nc(CC(=O)O)c(-c2ccsc2)o1	11
CCCCCCCCCCCCOC(=O)Cc1nc(-c2ccc(Cl)cc2)oc1-c1ccco1	20
CCCCCCCOC(=O)Cc1nc(-c2ccc(Cl)cc2)oc1-c1ccco1	19
O=C(O)Cc1nc(-c2ccc(F)cc2)oc1-c1ccco1	20

Then this compound:
Query: Param item = CCOC(=O)C(C)(C)Oc1ccc(Cl)cc1 [CLOFIBRATE] ; retrieve measured Reduction.
Result: 15
